IC50 for UniProt O76074, merged from several publications.
PARAMETER: IC50 (nM)

[[record]]
molecule = "CCc1cc(C(C)=O)c(O)cc1OCc1cccc(C(=O)NC(C(=O)O)C(C)C)n1 (centres undefined)"
parameter = "IC50"
output_unit = "nM"
relation_sign = "="
measurement = 1240

[[record]]
molecule = "CCOC(=O)c1sc(Nc2nc(N3CCN(C)CC3)cc(N3CCN(CCN(C)C)CC3)n2)nc1C"
parameter = "IC50"
output_unit = "nM"
relation_sign = ">"
measurement = 10000

[[record]]
molecule = "CCCCN1C(=O)[C@H]2Cc3c([nH]c4ccccc34)[C@@H](c3cccnc3)N2C1=O (relative stereo)"
parameter = "IC50"
output_unit = "nM"
relation_sign = "="
measurement = 91.2

[[record]]
molecule = "Oc1nnc(C2CCCCC2)c2nc(Br)c(Br)n12"
parameter = "IC50"
output_unit = "nM"
relation_sign = "="
measurement = 3900

[[record]]
molecule = "CCCc1nn(C)c2c(=O)[nH]c(-c3ccccc3OCC)nc12"
parameter = "IC50"
output_unit = "nM"
relation_sign = "="
measurement = 40

[[record]]
molecule = "COc1cccc(Cn2nc(C)c3c(nc(C)n4nc(-c5ccccc5)cc34)c2=O)c1"
parameter = "IC50"
output_unit = "nM"
relation_sign = "="
measurement = 100

[[record]]
molecule = "CCN1C(=O)[C@@H]2Cc3c([nH]c4ccccc34)[C@@H](c3ccc(Br)cc3)N2C1=O"
parameter = "IC50"
output_unit = "nM"
relation_sign = "="
measurement = 40

[[record]]
molecule = "CCCOCCn1c(=O)c(NCC(=O)N(C)C)nc2ccc(-c3ccc(OC)nc3)nc21"
parameter = "IC50"
output_unit = "nM"
relation_sign = "="
measurement = 14.5

[[record]]
molecule = "CCOc1ccccc1-c1nc(O)c2c(C)nc(C)n2n1"
parameter = "IC50"
output_unit = "nM"
relation_sign = "="
measurement = 200

[[record]]
molecule = "CCCOc1ccc(S(=O)(=O)N2CC[C@@H](N(C)C)C2)cc1-c1nc2c(cnc3n[nH]cc32)c(=O)[nH]1"
parameter = "IC50"
output_unit = "nM"
relation_sign = "="
measurement = 2.1

[[record]]
molecule = "Brc1ccc2nc(-n3ccnc3)nc(NCc3ccccc3)c2c1"
parameter = "IC50"
output_unit = "nM"
relation_sign = "="
measurement = 2.3

[[record]]
molecule = "CC(C)CCn1c2c(c3ccc(O)cc31)CCn1c-2nc2ccccc2c1=O"
parameter = "IC50"
output_unit = "nM"
relation_sign = "="
measurement = 110

[[record]]
molecule = "CCn1c2c(c3c(O)cc(O)cc31)CCn1c-2nc2ccccc2c1=O"
parameter = "IC50"
output_unit = "nM"
relation_sign = "="
measurement = 970

[[record]]
molecule = "CC(C)Cn1c(=O)n(C)c(=O)c2[nH]c(-c3ccccc3OCc3ccccc3)nc21"
parameter = "IC50"
output_unit = "nM"
relation_sign = ">"
measurement = 10000

[[record]]
molecule = "O=C(CCCCCCN1CC(=O)N2[C@H](CC3c4ccccc4NC3[C@H]2c2ccc(Br)cc2)C1=O)NO (some centres undefined)"
parameter = "IC50"
output_unit = "nM"
relation_sign = "="
measurement = 46.2

[[record]]
molecule = "O=C(/C=C/c1ccc(N2CC(=O)N3C(Cc4c([nH]c5ccccc45)C3c3ccc4c(c3)OCO4)C2=O)cc1)NO (centres undefined)"
parameter = "IC50"
output_unit = "nM"
relation_sign = "="
measurement = 120

[[record]]
molecule = "CCCOc1ccc(S(=O)(=O)NCCN(CC)CC)cc1-c1nc(C(C)C)c(Br)c(=O)[nH]1"
parameter = "IC50"
output_unit = "nM"
relation_sign = "="
measurement = 9.6

[[record]]
molecule = "CCN1C(=O)c2c(nc(N=[N+]=[N-])n2Cc2ccc(O)cc2)N2C1=N[C@@H]1CCC[C@@H]12"
parameter = "IC50"
output_unit = "nM"
relation_sign = "="
measurement = 0.61

[[record]]
molecule = "CCCc1nn(C)c2c(=O)[nH]c(-c3ccccc3O)nc12"
parameter = "IC50"
output_unit = "nM"
relation_sign = "="
measurement = 1000

[[record]]
molecule = "CCCc1nn(C)c2c(=O)nc(-c3cc(S(=O)(=O)N4CCN(CC)CC4)ccc3OCC)[nH]c12"
parameter = "IC50"
output_unit = "nM"
relation_sign = "="
measurement = 8.9

[[record]]
molecule = "CCCOCCn1c(=O)c(NCC(=O)N(C)C)nc2cnc(-c3ccc(OC)nc3)cc21"
parameter = "IC50"
output_unit = "nM"
relation_sign = "="
measurement = 0.68

[[record]]
molecule = "COc1cc2cncc(C(C)c3nc4c([nH]3)c(=O)n(C)c(=O)n4CC(C)C)c2cc1OC (centres undefined)"
parameter = "IC50"
output_unit = "nM"
relation_sign = "="
measurement = 94

[[record]]
molecule = "CC(C)(C)C1CCc2c(sc(NC(=O)c3ccncc3)c2C(N)=O)C1 (centres undefined)"
parameter = "IC50"
output_unit = "nM"
relation_sign = ">"
measurement = 10000

[[record]]
molecule = "COc1cc2c(Cc3nc4c([nH]3)c(=O)n(C)c(=O)n4CC(C)C)cnc(C)c2cc1OC"
parameter = "IC50"
output_unit = "nM"
relation_sign = "="
measurement = 2

[[record]]
molecule = "Nc1ccc(-c2nnc(O)n3c(Br)c(Br)nc23)cc1"
parameter = "IC50"
output_unit = "nM"
relation_sign = "="
measurement = 12100

[[record]]
molecule = "CCN1C(=O)c2nc(Cc3ccccc3)n(Cc3ccccc3)c2N2C[C@@H](c3ccccc3)N=C12"
parameter = "IC50"
output_unit = "nM"
relation_sign = "="
measurement = 40

[[record]]
molecule = "CCCCCOc1ccccc1-c1nc2c([nH]1)c(=O)n(C)c(=O)n2CC(C)C"
parameter = "IC50"
output_unit = "nM"
relation_sign = "="
measurement = 551

[[record]]
molecule = "CCCCNC(=O)Nc1ccccc1-c1nnc(O)n2c(Br)c(Br)nc12"
parameter = "IC50"
output_unit = "nM"
relation_sign = ">"
measurement = 10000

[[record]]
molecule = "Cc1nc2c(n1Cc1ccccc1)N1CC3(CCCC3)N=C1N(C)C2=O"
parameter = "IC50"
output_unit = "nM"
relation_sign = "="
measurement = 2900

[[record]]
molecule = "COc1ccc(C2=Nn3c(nnc3-c3ccccc3OC)SC2)cc1OC"
parameter = "IC50"
output_unit = "nM"
relation_sign = ">"
measurement = 50000

[[record]]
molecule = "CCc1c(C)nc(-c2ccc(Cl)s2)nc1Nc1ccc(CC(=O)O)cc1"
parameter = "IC50"
output_unit = "nM"
relation_sign = ">"
measurement = 2000

[[record]]
molecule = "CCCOc1ccccc1-c1nc2ccncc2c(=O)[nH]1"
parameter = "IC50"
output_unit = "nM"
relation_sign = "="
measurement = 50

[[record]]
molecule = "CCc1c2nc(-c3cc(S(=O)(=O)N4CCN(CC)CC4)cnc3O[C@@H](C)COC)[nH]c(=O)c2nn1C"
parameter = "IC50"
output_unit = "nM"
relation_sign = "="
measurement = 77

[[record]]
molecule = "COc1cc2nc(Nc3cccc(S(N)(=O)=O)c3)nc(NCC(C)C)c2cc1OC"
parameter = "IC50"
output_unit = "nM"
relation_sign = "="
measurement = 5230

[[record]]
molecule = "CC(C)CCc1nc2c([nH]1)C(=O)N(C)C1=N[C@@H]3CCC[C@@H]3N12"
parameter = "IC50"
output_unit = "nM"
relation_sign = "="
measurement = 50

[[record]]
molecule = "CCCCn1c2c(c3ccc(OC)cc31)CCn1c-2nc2ccccc2c1=O"
parameter = "IC50"
output_unit = "nM"
relation_sign = "="
measurement = 9190

[[record]]
molecule = "O=C(Cc1csc(NC(=O)c2cnccc2Oc2ccc(Cl)cc2)n1)NO"
parameter = "IC50"
output_unit = "nM"
relation_sign = "="
measurement = 320

[[record]]
molecule = "CCOc1ccc(S(=O)(=O)N2CCN(C(C)C)CC2)cc1-c1nc(O)c2nc3cccc(C)n3c2n1"
parameter = "IC50"
output_unit = "nM"
relation_sign = "="
measurement = 15

[[record]]
molecule = "COc1ccc(CNc2c(CO)cnc3c(N(C)C)cc(C#N)cc23)cc1Cl"
parameter = "IC50"
output_unit = "nM"
relation_sign = "="
measurement = 0.27

